# protocol: Primary qHTS for delayed death inhibitors of the malarial parasite plastid, 48 hour incubation
# condition.set: P. falciparum luciferase growth in erythrocytes; series mostly up to 28.7 µM
In all, about 310,000 compounds went through this assay and about 18,000 (5.8%) were called active. Roughly 22% stayed inconclusive and do not appear here. Calls come from the whole dose curve; as a rule, active = well fitted inhibition curve with a large enough effect; inconclusive = small, poorly fitted or top-dose-only effect, or another doubt; inactive = no such curve, though single readings can be large or run the other way. For the sample, actives were picked, then their nearest neighbours and some compounds at random.
Reply using exactly one outcome from active, inactive

Solved entries (count: 6):
{"chemical.smiles": "O=S(=O)(NC1CC1)c1ccc(F)c(F)c1", "category.label": "inactive"}
{"chemical.smiles": "CCC(=O)c1ccc(OC(=O)/C=C/c2cc(OC)c(OC)c(OC)c2)cc1", "category.label": "inactive"}
{"chemical.smiles": "O=C(CN(c1cc(C(F)(F)F)ccc1Cl)S(=O)(=O)c1ccccc1)NCc1cccnc1", "category.label": "inactive"}
{"chemical.smiles": "COc1cc([N+](=O)[O-])ccc1NC(=O)CN1CCCC1", "category.label": "inactive"}
{"chemical.smiles": "Cc1nc2ccccc2c(=O)n1Cc1ccc([N+](=O)[O-])cc1", "category.label": "inactive"}
{"chemical.smiles": "CCOC(=O)Cc1ncccc1C(=O)Nc1ccc(OC)cc1", "category.label": "active"}

Could you kindly confirm the outcome this assay logged for Cc1cc(CNC(=O)c2cccc([N+](=O)[O-])c2)c2ccccc2n1 ?
inactive

Please indicate how the test categorized COc1cc(NC(=O)c2cccnc2SC)cc(OC)c1 .
inactive

Query: recorded result category for CN1C(=O)C2(OCCCO2)c2cc(Cl)ccc21 in this test
inactive

// return assay outcome for CCCCC(=O)Nc1ccc(C(=O)Nc2cc(C(F)(F)F)ccc2Cl)cc1
inactive

Can you look up the reported call for COc1cccc(C(=O)OCc2cc(=O)oc3c(C)c(C)ccc23)c1OC for me?
inactive

---

For each entry below, report its activity change, negative = inhibition value.
# protocol: Primary qHTS for delayed death inhibitors of the malarial parasite plastid, 48 hour incubation; for activity change, negative = inhibition: % is set by controls: 0 for no effect and ±100 for the full control effect
# condition.set: P. falciparum luciferase growth in erythrocytes; series mostly up to 28.7 µM
Hit rate of the full screen: of about 310,000 compounds, about 18,000 (5.8%) were called active. Not shown: some 22% with an inconclusive outcome. For the sample, actives were picked, then their nearest neighbours and some compounds at random.

For every record below, what is its activity change, negative = inhibition?
1. CC(=O)c1cccc(NC(=O)c2cc(C)nn2-c2ccccc2)c1
2. CN1CCN(CCNC(=O)Nc2ccccc2[N+](=O)[O-])CC1

1: -2.83% [at 0.00184 µM] (inactive); 2: -5.7% [at 0.00184 µM] (inactive)

---

# protocol: Primary qHTS for delayed death inhibitors of the malarial parasite plastid, 48 hour incubation; note: potency is the fitted concentration of half-maximal effect
# condition.set: P. falciparum luciferase growth in erythrocytes; series mostly up to 28.7 µM
Hit rate of the full screen: of about 310,000 compounds, about 18,000 (5.8%) were called active. Inconclusive results (about 22%) are left out. The full list was thinned out, with actives kept by preference.
readout.kind: Potency

Reference set (5 entries):
{"molecule": "CC(OC(=O)CNC(=O)c1ccc(Cl)c([N+](=O)[O-])c1)C(=O)NCc1ccco1 (configuration not stated)", "Potency": "inactive"}
{"molecule": "COc1ccc(-c2cc(C(=O)N(C)CC(=O)Nc3ccccc3Cl)c3ccccc3n2)cc1OC", "Potency": "13.1 µM (active)"}
{"molecule": "CSc1nc(-c2ccccc2)nc(C(Cl)Cl)n1", "Potency": "inactive"}
{"molecule": "O=C(CSc1nc(Nc2ccccc2)nc(N2CCOCC2)n1)Nc1cc(Cl)ccc1O", "Potency": "1.17 µM (active)"}
{"molecule": "CN(CC(=O)Nc1ccccc1Cl)C(=O)c1ccccc1SCC(=O)N1CCCC1", "Potency": "inactive"}

For every item in the list below, what is its measured Potency?
1. CSc1ccc(C(=O)C2CCCN(Cc3ccn[nH]3)C2)cc1 (configuration not stated)
2. Clc1ccc2nc(-c3ccccc3)nc(C(Cl)Cl)c2c1
3. Cc1cccc(C(=O)NCC(=O)OCC(=O)N(C)CC(=O)Nc2ccccc2Cl)c1
4. COc1ccc(CN(C)C(=O)c2cc(-c3ccc(C)cc3C)nc3ccccc23)c(OC)c1OC

1. inactive
2. 10.4 µM (active)
3. inactive
4. 9.28 µM (active)

For the 4 molecules below, give their Potency values.
1. CCc1ccccc1NC(=O)NCCN1CCCCC1
2. COc1ccc(C)cc1N(C)C(=O)c1coc(=O)c2ccccc12
3. CCOC(=O)c1cnc(-c2ccccc2)nc1Oc1ccc(C)cc1
4. CCN(CC)c1ccc(/C=N/NC(=O)CNC(=O)c2cccnc2)cc1

1. inactive
2. inactive
3. 3.29 µM (active)
4. inactive

Record Potency for all entries; do not skip any.
1. Cc1cc(S(=O)(=O)NCc2ccccn2)c(Cl)cc1Cl
2. O=[N+]([O-])c1cccc(/C([O-])=C(/C(=S)Nc2ccccc2F)[n+]2ccccc2)c1
3. Cn1nccc1C(=O)NC1CCCc2c1cnn2-c1ccccc1F (configuration not stated)
4. CC(C)NC(=O)N1CCN(c2ccncc2S(=O)(=O)N2CCCCC2)CC1
5. Cc1ccc(/C([O-])=C(/C(=S)NCc2ccco2)[n+]2ccccc2)cc1[N+](=O)[O-]
6. Cc1c(Cl)cccc1NC(=S)NCc1ccc2c(c1)OCO2
7. CCCCOc1ccc(-c2ncc(C(=O)OCC)c(N)n2)cc1
8. CC(C)n1c(SCC(=O)Nc2ccccc2N2CCCCC2)nc2c1c(=O)n(C)c(=O)n2C

1. inactive
2. inactive
3. inactive
4. inactive
5. 10.4 µM (active)
6. inactive
7. inactive
8. inactive

Record summary for CCCCC(=O)Nc1ccc2c(c1)OCCO2 : reported Potency = inactive

---

# protocol: Primary qHTS for delayed death inhibitors of the malarial parasite plastid, 48 hour incubation
# condition.set: P. falciparum luciferase growth in erythrocytes; series mostly up to 28.7 µM
The campaign covered roughly 310,000 compounds. About 18,000 (5.8%) were called active. Roughly 22% stayed inconclusive and do not appear here. Calls follow the shape of the dose curve; as a rule, active = well fitted inhibition curve with a large enough effect; inconclusive = small, poorly fitted or top-dose-only effect, or another doubt; inactive = no such curve, though single readings can be large or run the other way. The sample holds actives, similar compounds and a random draw of the others, so the mix is not that of the screen.
Hello, when you answer, please use one of the following outcomes: active, inactive

Some solved entries appear below for comparison.
{"compound": "COc1cc(-c2n[nH]c(=S)n2Cc2ccccc2)cc(OC)c1OC", "category.label": "inactive"}
{"compound": "c1ccc(-c2cnc(CN3CCN(c4ccccc4)CC3)o2)cc1", "category.label": "inactive"}
{"compound": "O=C(CC1N=C2c3ccccc3N=C(SCc3ccccc3Cl)N2C1=O)NCc1ccco1 (configuration not stated)", "category.label": "active"}

Field: outcome | Entry: CCc1ccccc1NC(=S)Nc1cc(OC)c(NC(=O)C(C)C)cc1OC
inactive

Look up the recorded call for COc1cc(OC)c2ccc(=O)oc2c1C(CCN1CCN(c2ccccc2)CC1)c1ccc2c(c1)OCO2 (configuration not stated) in this test.
active

Hi, sorry to bother you, what did the test record for O=C(NC(Cc1ccccc1)C(=O)N1CCCC(C(F)(F)F)C1)c1ccccc1 (configuration not stated) ?
inactive

Call for entry COc1ccc(NC(=O)C2=C(C)NC(=O)NC2c2ccccc2[N+](=O)[O-])cc1 (configuration not stated) :
inactive

Hi, sorry to bother you, what did the test record for CSc1ncnc2sc(C)c(C)c12 ?
inactive

---

# protocol: Primary qHTS for delayed death inhibitors of the malarial parasite plastid, 48 hour incubation; note: potency is the fitted concentration of half-maximal effect
# condition.set: P. falciparum luciferase growth in erythrocytes; series mostly up to 28.7 µM
Screen size: about 310,000 compounds; about 18,000 (5.8%) were called active. Inconclusive results (about 22%) are left out. What follows is part of a selection rich in actives, with near analogues and random picks from the rest.
readout.kind: Potency

# example entries with known answers
{"compound": "CCCCn1c(N)c(N(CC(C)C)C(=O)CN(C)S(=O)(=O)c2ccc(F)cc2)c(=O)[nH]c1=O", "endpoint.value": "inactive"}
{"compound": "Cc1cc(C)cc(OCc2nnc(SCC(=O)OC3CCCCC3)o2)c1", "endpoint.value": "inactive"}
{"compound": "COc1cc(C2C(C(=O)c3ccc(C)o3)=C(O)C(=O)N2CCc2ccccc2)ccc1O (stereo not given)", "endpoint.value": "inactive"}
{"compound": "COc1cccc(C2CC(c3cccs3)=NN2C(=O)CSC2=NCCS2)c1OC (stereo not given)", "endpoint.value": "10.4 µM (active)"}
{"compound": "OC(CNCc1ccc(Cl)c(Cl)c1)c1ccccc1 (stereo not given)", "endpoint.value": "5.86 µM (active)"}

Each of the following entries comes with a recorded value; kindly state Potency for each.
1. Cc1ccccc1OCc1nnc(SCC(=O)N2c3ccccc3Sc3ccc(Cl)cc32)o1
2. COc1ccc(CCN(C)CCN2C(=O)c3ccccc3C2=O)cc1OC
3. O=C(CN1CCC(NC(=O)C2CC2)CC1)Nc1ccccc1[N+](=O)[O-]
4. CCC(C)NC(=O)C1c2ccccc2C(=O)N1Cc1ccccc1 (stereo not given)
5. O=C(NC(Cc1ccc(O)cc1)C(=O)O)/C(=C/c1ccccc1)NC(=O)c1ccccc1 (stereo not given)

10.4 µM (active)
inactive
inactive
inactive
inactive
